- system under test: human orexin-2 receptor (Homo sapiens)
- Construct: expressed in transfected cells; host or cells: Chinese hamster ovary (CHO) cells, G418 selection
- Sequence (O43614 whole entry): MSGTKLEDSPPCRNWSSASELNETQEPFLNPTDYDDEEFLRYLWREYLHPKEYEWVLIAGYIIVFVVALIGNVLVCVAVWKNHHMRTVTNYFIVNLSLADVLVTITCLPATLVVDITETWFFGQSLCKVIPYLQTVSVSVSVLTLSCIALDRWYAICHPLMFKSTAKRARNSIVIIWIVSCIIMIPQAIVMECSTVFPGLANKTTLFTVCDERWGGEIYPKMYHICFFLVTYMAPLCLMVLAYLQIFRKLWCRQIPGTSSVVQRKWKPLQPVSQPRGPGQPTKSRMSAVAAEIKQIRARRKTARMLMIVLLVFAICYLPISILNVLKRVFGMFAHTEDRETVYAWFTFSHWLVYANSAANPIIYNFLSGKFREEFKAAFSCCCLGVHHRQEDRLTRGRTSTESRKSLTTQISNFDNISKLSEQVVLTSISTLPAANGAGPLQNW
- measurement notes: Intracellular calcium measurements (FLIPR), orexin receptor antagonistic activity
- Format: cell-based
- applied conditions: FLIPR2; CHO cells expressing human orexin-2 receptor; 3 nM orexin-A; read-out: OX2 IC50
Give measured IC50 for each item. Keep answers brief.
The reply should be a number in nM, with the unit left off.

Fill in IC50 for record CCn1nc(C)cc1C(=O)NC[C@@H]1[C@H]2C[C@H]2CN1C(=O)c1nc(C)sc1-c1cccc(Cl)c1 [Example 80]
10

Fill in IC50 for record Cc1ncc(C(=O)N2C[C@@H]3C[C@@H]3[C@H]2CNC(=O)c2c(C)nc3sccn23)c(-c2ccccc2)n1 [Example 23]
338

Fill in IC50 for record Cc1nc2sccn2c1C(=O)NC[C@@H]1[C@H]2C[C@H]2CN1C(=O)c1ccccc1-c1cccs1 [Example 32]
55

Fill in IC50 for record Cc1cccc(-c2sc(Br)nc2C(=O)N2C[C@@H]3C[C@@H]3[C@H]2CNC(=O)c2c(C)nc3sccn23)c1 [Example 29]
27

Fill in IC50 for record Cc1nc(-c2cccc(F)c2)c(C(=O)N2C[C@@H]3C[C@@H]3[C@H]2CNC(=O)c2c(C)nc3sccn23)s1 [Example 37]
35

Fill in IC50 for record Cc1cccc(-c2sc(C)nc2C(=O)N2C[C@@H]3C[C@@H]3[C@H]2CNC(=O)c2cccc3c2OCC(=O)N3)c1 [Example 169]
61

Fill in IC50 for record Cc1cccc(-c2sc(C)nc2C(=O)N2C[C@@H]3C[C@@H]3[C@H]2CNC(=O)c2cc(Br)ccc2Cl)c1 [Example 148]
102

###

- system under test: human orexin-1 receptor (Homo sapiens)
- Construct: expressed in transfected cells; host or cells: Chinese hamster ovary (CHO) cells, G418 selection
- measurement notes: Intracellular calcium measurements (FLIPR), orexin receptor antagonistic activity
- Format: cell-based
- applied conditions: FLIPR Tetra, optimized conditions; CHO cells expressing human orexin-1 receptor; 3 nM orexin-A; read-out: OX1 IC50
parameter measured: IC50 (µM)
The reply should be a number in µM, with the unit left off.

Fill in IC50 for record Cc1cccc(-c2sc(C)nc2C(=O)N2C[C@@H]3C[C@@H]3[C@H]2CNC(=O)c2ccn3ccsc23)c1
0.016

Fill in IC50 for record Cc1cccc(-c2sccc2C(=O)N2C[C@@H]3C[C@@H]3[C@H]2CNC(=O)c2cccc3oc(C)nc23)c1
0.083

Fill in IC50 for record Cc1ccc(-c2ccsc2C(=O)N2C[C@@H]3C[C@@H]3[C@H]2CNC(=O)c2c(C)nc3sccn23)cc1
0.096

Fill in IC50 for record Cc1cccc(-c2sccc2C(=O)N2C[C@@H]3C[C@@H]3[C@H]2CNC(=O)c2cc3occc3n2C)c1
0.117

###

- system under test: human orexin-1 receptor (Homo sapiens, UniProt O43613)
- Construct: expressed in transfected cells; host or cells: Chinese hamster ovary (CHO) cells, G418 selection
- Sequence (O43613 1-425): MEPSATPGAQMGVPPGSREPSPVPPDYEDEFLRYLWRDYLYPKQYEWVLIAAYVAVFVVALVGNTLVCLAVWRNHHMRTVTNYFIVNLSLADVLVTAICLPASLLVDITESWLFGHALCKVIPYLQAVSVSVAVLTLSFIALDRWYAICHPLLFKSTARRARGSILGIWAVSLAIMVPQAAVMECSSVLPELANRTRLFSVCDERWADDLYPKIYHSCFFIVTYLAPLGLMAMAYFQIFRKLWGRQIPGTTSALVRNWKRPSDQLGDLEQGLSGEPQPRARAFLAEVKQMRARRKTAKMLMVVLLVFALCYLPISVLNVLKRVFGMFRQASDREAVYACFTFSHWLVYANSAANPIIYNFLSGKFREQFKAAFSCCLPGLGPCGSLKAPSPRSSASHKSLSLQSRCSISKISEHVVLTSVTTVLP
- measurement notes: Intracellular calcium measurements (FLIPR), orexin receptor antagonistic activity
- Assay type: cell-based
- applied conditions: FLIPR Tetra, optimized conditions; CHO cells expressing human orexin-1 receptor; 3 nM orexin-A; read-out: OX1 IC50
Please use satisfied for IC50 under 60 nM and not satisfied for everything else, ties included.

Consider Cc1cccc(-c2sc(C)nc2C(=O)N2C[C@@H]3C[C@@H]3[C@H]2CNC(=O)c2cccc3nc(C)oc23)c1 [Example 256] . Does its IC50 lie strictly below 60 nM?
not satisfied

Consider CCn1nc(C)cc1C(=O)NC[C@@H]1[C@H]2C[C@H]2CN1C(=O)c1nc(C2CC2)sc1-c1cccc(C)c1 [Example 237] . Does its IC50 lie strictly below 60 nM?
satisfied

Consider Cc1ccc(-c2sccc2C(=O)N2C[C@@H]3C[C@@H]3[C@H]2CNC(=O)c2cccc3c2NCCO3)cc1 [Example 266] . Does its IC50 lie strictly below 60 nM?
not satisfied

Consider Cc1ccc(-c2sccc2C(=O)N2C[C@@H]3C[C@@H]3[C@H]2CNC(=O)c2cccc3nsnc23)cc1 [Example 274] . Does its IC50 lie strictly below 60 nM?
satisfied

Consider Cc1cccc(-c2sc(C)nc2C(=O)N2C[C@@H]3C[C@@H]3[C@H]2CNC(=O)c2cccc3sc(Cl)nc23)c1 [Example 299] . Does its IC50 lie strictly below 60 nM?
satisfied
